Each entry below carries its reported melting point.
measurement name: melting point

INSERT INTO measurements (compound, readout_value) VALUES
  ('CC(=O)[C@H]1C[C@@H](O)[C@H]2[C@@H]3C[C@H](C)C4=CC(=O)CC[C@]4(C)[C@H]3C(=O)C[C@@]21C [Compound 4]', '185 to 186 °C'),
  ('C[C@H]1C[C@H]2[C@@H]3[C@H](O)C[C@H]([C@@H](C)O)[C@@]3(C)CC(=O)[C@@H]2[C@@]2(C)CCC(=O)C=C12 [Compound 8]', '274 to 275 °C'),
  ('CC(=O)[C@@]1(O)CC[C@H]2[C@@H]3C[C@@](C)(O)C4=CC(=O)CC[C@]4(C)[C@H]3C(=O)C[C@@]21C [Compound 5]', '289 to 291 °C'),
  ('CC(=O)[C@H]1CC[C@@]2(O)[C@@H]3C[C@H](C)C4=CC(=O)CC[C@]4(C)[C@H]3C(=O)C[C@]12C [Compound 2]', '209 to 210 °C'),
  ('CC(O)C1CCC2C3CC(C)(O)C4=CC(=O)CCC4(C)C3C(=O)CC12C (centres unmarked) [Compound 6]', '229 to 230 °C');

###

Test system: PHA activated T-cells
assay procedure: T-cell proliferation inhibition assay (PBMC, tritiated thymidine)
Type: cell-based, human
setup conditions: Homo sapiens, T-cell, read-out: IC50, PHA activated T-cells proliferation, human PBMC, 5 μg/mL PHA; tested at 0.2, 1, 5, 25 μg/mL; mean ± SD of triplicates
measurement name: IC50 (µg/mL)

INSERT INTO results (compound, unit_symbol, readout_value) VALUES
  ('CC(=O)[C@H]1C[C@@H](O)[C@H]2[C@@H]3C[C@H](C)C4=CC(=O)CC[C@]4(C)[C@H]3C(=O)C[C@@]21C', 'µg/mL', 9.2),
  ('CC(=O)[C@H]1CC[C@H]2[C@@H]3C[C@@](C)(O)C4=CC(=O)CC[C@]4(C)[C@H]3C(=O)C[C@]12C', 'µg/mL', 14.6),
  ('CC(O)C1CCC2C3CC(C)(O)C4=CC(=O)CCC4(C)C3C(=O)CC12C (stereo not shown)', 'µg/mL', 15.2),
  ('C[C@H]1C[C@H]2[C@@H]3[C@H](O)C[C@H]([C@@H](C)O)[C@@]3(C)CC(=O)[C@@H]2[C@@]2(C)CCC(=O)C=C12', 'µg/mL', 10.4),
  ('CC(=O)[C@@]1(O)CC[C@H]2[C@@H]3C[C@@](C)(O)C4=CC(=O)CC[C@]4(C)[C@H]3C(=O)C[C@@]21C', 'µg/mL', 1.2),
  ('CC(=O)[C@H]1CC[C@@]2(O)[C@@H]3C[C@H](C)C4=CC(=O)CC[C@]4(C)[C@H]3C(=O)C[C@]12C', 'µg/mL', 20);

###

Test system: zymosan activated PMNs (human whole blood cells)
assay procedure: Oxidative burst inhibition assay (luminol-enhanced chemiluminescence, zymosan-activated)
Type: cell-based
setup conditions: Whole blood cell; zymosan activated PMNs / human whole blood; tested at 1, 10, 100 μg/mL; mean ± SD of triplicates
Experimental: Oxidative burst assay was carried out by chemiluminescence technique using luminol as a probe to determine the effect of test compounds on the production of reactive oxygen species (ROS) from phagocytes, employing […] et al. method with slight modifications. […] Louis, MO, USA) and 25 μL ([…]) of luminol (Sigma Chemical Co., St. Louis, MO, USA). […] The level of ROS was measured as RLU (relative light units) with a luminometer (Labsystem Luminoskan RS, Finland). […]
measurement name: IC50

INSERT INTO measurements (compound, system_tested, measurement_name, readout_value) VALUES
  ('CC(=O)[C@@]1(O)CC[C@H]2[C@@H]3C[C@@](C)(O)C4=CC(=O)CC[C@]4(C)[C@H]3C(=O)C[C@@]21C', 'zymosan activated PMNs (human whole blood cells)', 'IC50', '> 100 µg/mL'),
  ('CC(=O)[C@H]1CC[C@@]2(O)[C@@H]3C[C@H](C)C4=CC(=O)CC[C@]4(C)[C@H]3C(=O)C[C@]12C', 'zymosan activated PMNs (human whole blood cells)', 'IC50', '> 100 µg/mL'),
  ('CC(=O)[C@H]1C[C@@H](O)[C@H]2[C@@H]3C[C@H](C)C4=CC(=O)CC[C@]4(C)[C@H]3C(=O)C[C@@]21C', 'zymosan activated PMNs (human whole blood cells)', 'IC50', '> 100 µg/mL'),
  ('CC(=O)[C@H]1CC[C@H]2[C@@H]3C[C@@](C)(O)C4=CC(=O)CC[C@]4(C)[C@H]3C(=O)C[C@]12C', 'zymosan activated PMNs (human whole blood cells)', 'IC50', '> 100 µg/mL'),
  ('CC(O)C1CCC2C3CC(C)(O)C4=CC(=O)CCC4(C)C3C(=O)CC12C (centres unmarked)', 'zymosan activated PMNs (human whole blood cells)', 'IC50', '30.3 µg/mL');
